Recorded conditions: buffer; pH 7.4; 200.0 µM
Class field: derived from solubility kinetic; ranges lower segment: < 10 µg/mL; middle segment: ≥ 10 µg/mL and < 30 µg/mL; upper segment: ≥ 30 µg/mL

| Compound | Label class |
| --- | --- |
| OCC1(Cc2ccccc2)CCCN(C2CCCC2)C1 (centres undefined) | upper segment |
| Cc1ccc(NC(=O)Nc2ccc(F)cc2F)c(OC(F)F)c1 | lower segment |
| CCOC(=O)C1CCCN(C(=O)c2cc(-c3ccco3)nc3ccccc23)C1 (centres undefined) | upper segment |

[ask] Bin this entry: O=c1c2cc(Br)ccc2[nH]c(=S)n1Cc1ccccc1
[reply] lower segment

[ask] Bin this entry: O=C(COC(=O)c1ccco1)NC12CC3CC(CC(C3)C1)C2
[reply] lower segment

[ask] Bin this entry: CC1(C)c2ccccc2-n2c1cc1oc(=O)cc(O)c1c2=O
[reply] upper segment

[ask] Bin this entry: O=C(OCc1cc(=O)n2ccsc2n1)c1ccc(O)cc1O
[reply] middle segment

[ask] Bin this entry: CC(C)CN1CCN(Cc2cccn2-c2cccnc2)CC1CCO (centres undefined)
[reply] middle segment

[ask] Bin this entry: Cc1cccc2[nH]c(CN(C)Cc3nc(CC4CC4)no3)nc12
[reply] upper segment

[ask] Bin this entry: Cc1ccc(CN(C)C(=O)c2cc(S(=O)(=O)N3CCOCC3)ccc2F)o1
[reply] upper segment

[ask] Bin this entry: CCOC(=O)C1(Cc2cccc(Cl)c2)CCCN(CCO)C1 (centres undefined)
[reply] upper segment

[ask] Bin this entry: COc1ccc(N2CCN(C(=O)Cn3cncn3)CC2)cc1
[reply] upper segment

[ask] Bin this entry: Cc1ccc2[nH]cc(CCNC(=O)C3CCCCC3)c2c1
[reply] upper segment

[ask] Bin this entry: COc1cccc(NC(=O)CN(C)C(=O)c2cc(C)on2)c1
[reply] upper segment

[ask] Bin this entry: O=C(O)CN1C(=O)S/C(=C\c2ccc3c(c2)OCO3)C1=O
[reply] upper segment
